Assay: ATG_AP_1_CIS: Attagene CIS-FACTORIAL HepG2 Assay for human Activator Protein 1 (AP-1) (AID 2282931)
Details: HepG2 Attagene cis-factorial AP-1 reporter mRNA; actives raise or lower the signal
Protocol: ATG_CIS is a cell-based, multiplexed-readout assay that uses HepG2, a human liver cell line, with measurements taken at 24 hours after chemical dosing in a 24-well plate.ATG_AP_1_CIS is one of 52 assay component(s) measured or calculated from the ATG_CIS assay. […] This assay endpoint, ATG_AP_1_CIS, was analyzed with bidirectional fitting relative to DMSO as the negative control and baseline of activity. […]
Calls of active or inactive are those of the source. How the source made its calls: active means hit-call score of the fitted dose curve at least 0.9, where 1 is the maximum; inactive means score below 0.9.
Entry note: the call must match one of active, inactive

{"structure.notation": "CCCCCCCCCCCCCC[n+]1ccccc1", "classification": "active"}
{"structure.notation": "O=C(O)C(F)(F)OC(F)(F)C(F)(F)OC(F)(F)C(F)(F)OC(F)(F)C(F)(F)C(F)(F)C(F)(F)F", "classification": "inactive"}
{"structure.notation": "Cc1ccc(N=Nc2c(O)ccc3ccccc23)c(C)c1", "classification": "active"}
{"structure.notation": "CCCCCCCCCCCCCCCC(=O)OC", "classification": "inactive"}
{"structure.notation": "Brc1ccc(Oc2ccc(Br)cc2Br)cc1", "classification": "inactive"}

Could you now look at the following compound, please?
[Q] // return assay outcome for O=C1c2ccc(O)c(O)c2C(=O)c2c(O)ccc(O)c21
[A] active

----------
system: Sodium/Iodide Symporter (NIS), SLC5A5 (gene 6528); assay: CPHEA_Stoker_NIS_Inhibition_RAIU: CPHEA's Radioactive Iodide Uptake (RAIU) Assay for Sodium/Iodide Symporter (NIS) Inhibition, Stoker and Laws Labs (AID 2283841)
Results filed as inconclusive are left out. Active and inactive are the calls of the source. How the source made its calls: active means hit-call score of the fitted dose curve at least 0.9, where 1 is the maximum; inconclusive means response in the unintended direction; inactive means score below 0.9.
Entry note: the call must match one of True = active, False = inactive

{"compound": "CN(CCO)S(=O)(=O)C(F)(F)C(F)(F)C(F)(F)C(F)(F)C(F)(F)C(F)(F)C(F)(F)C(F)(F)F", "classification": "False"}
{"compound": "OCC(F)(F)C(F)(F)C(F)(F)C(F)(F)C(F)(F)C(F)(F)C(F)(F)C(F)(F)C(F)(F)C(F)(F)C(F)(F)F", "classification": "False"}
{"compound": "CCCCCCc1ccc(N)cc1", "classification": "False"}

[Q] // return assay outcome for O=C(CC(=O)C(F)(F)C(F)(F)C(F)(F)F)c1cccs1
[A] True

[Q] // return assay outcome for NC(=NCCCCCCN=C(N)/N=C(\N)Nc1ccc(Cl)cc1)/N=C(\N)Nc1ccc(Cl)cc1
[A] False

[Q] // return assay outcome for Cc1[nH]nc2c1N=C(c1ccccc1Cl)c1cc([N+](=O)[O-])ccc1N2
[A] False

[Q] // return assay outcome for CCCCC(CC)C(=O)O (stereo not given)
[A] False

[Q] // return assay outcome for O=C1OC2(c3ccccc31)c1cc(I)c(O)c(I)c1Oc1c2cc(I)c(O)c1I
[A] True

[Q] // return assay outcome for Cc1cc(Cc2cc(C)cc(C(C)(C)C)c2O)c(O)c(C(C)(C)C)c1
[A] False

[Q] // return assay outcome for Cc1cc(C(C)(C)C)c(O)c(C(C)(C)C)c1
[A] False

----------
read-out: NAD(P)H dehydrogenase [quinone] 1 (NQO1), NQO1 (gene 1728); test: LTEA_HepaRG_NQO1: Life Technologies and Expression Analysis (LTEA) Assay for NAD(P)H dehydrogenase [quinone] 1 (NQO1) using HepaRG (AID 2283526); details: mRNA level, 48 h; actives raise or lower the signal
Activity calls are given as the source filed them. The calls were made as follows: active = hit-call score of the fitted dose curve at least 0.9, where 1 is the maximum; inactive = score below 0.9.
Entry note: the call must match one of YES = active, NO = inactive

# example entries with known answers
{"compound": "O=C(CCCN1CCC(O)(c2ccc(Cl)cc2)CC1)c1ccc(F)cc1", "classification": "NO"}
{"compound": "N=C(N)c1ccc(OCCCCCOc2ccc(C(=N)N)cc2)cc1", "classification": "YES"}
{"compound": "CCC(C)c1ccccc1O (centres undefined)", "classification": "NO"}
{"compound": "CCCCCCCCCCCCOS(=O)(=O)O", "classification": "NO"}
{"compound": "CCCCC(CC)C(=O)O (centres undefined)", "classification": "NO"}

Could you now look at the following compound, please?
[Q] // return assay outcome for O=C(c1ccccc1)c1ccccc1
[A] NO

----------
biological target: Cellular tumor antigen p53 (Homo sapiens); experiment: TOX21_p53_BLA_p5_ratio: Tox21 HCT-116 p53 Agonism Beta-lactamase Assay, Ratio, Phase 5 (AID 2283599)
Inconclusive results are not listed. Activity calls are given as the source filed them. The calls were made as follows: active = hit-call score of the fitted dose curve at least 0.9, where 1 is the maximum; inconclusive = response in the unintended direction; inactive = score below 0.9.
Entry note: the call must match one of Y for active, N for inactive

# example entries with known answers
{"compound": "C[C@]12CC[C@@H]3c4ccc(O)cc4CC[C@H]3[C@@H]1C[C@@H](O)[C@@H]2O", "tested.system": "Cellular tumor antigen p53 (Homo sapiens)", "classification": "N"}
{"compound": "CCCCCCCCCC=CCC1CC(=O)OC1=O (centres undefined)", "tested.system": "Cellular tumor antigen p53 (Homo sapiens)", "classification": "N"}

[Q] // return assay outcome for COc1ccccc1NC(=O)c1cc2ccccc2cc1O
[A] N

----------
Experiment: CCTE_Mundy_HCI_iCellGluta_NOG_NeuriteCount: CCTE's Neurite Outgrowth Assay in iCellGluta cells for Neurite Count, Mundy Lab (AID 2284342);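 further: chemical exposure about 48 hours starting 2 hours after plating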
Description: CCTE_Mundy_HCI_iCellGluta_NOG is a multiplexed, cell-based-readout assay that uses iCell GlutaNeurons from FUJIFILM Cellular Dynamics, Inc. (FCDI), human glutamatergic enriched neurons derived from induced pluripotent stem (iPS) cells, with measurements taken at 50.33 hours after chemical dosing in a microplate: 96-well plate.CCTE_Mundy_HCI_iCellGluta_NOG_NeuriteCount is one of four components of the CCTE_Mundy_HCI_iCellGluta_NOG assay. […]
Inconclusive results are not listed. Calls of active or inactive are those of the source. The calls were made as follows: active = hit-call score of the fitted dose curve at least 0.9, where 1 is the maximum; inconclusive = response in the unintended direction; inactive = score below 0.9.
Entry note: the call must match one of 1.0 = active, 0.0 = inactive

[Q] // return assay outcome for C=CC(=O)OCCC(F)(F)C(F)(F)C(F)(F)C(F)(F)C(F)(F)C(F)(F)C(F)(F)C(F)(F)F
[A] 0.0

[Q] // return assay outcome for O=C(CC(=O)C(F)(F)C(F)(F)C(F)(F)F)c1cccs1
[A] 0.0

----------
target: Cellular tumor antigen p53 (Homo sapiens) (UniProt P04637); test: TOX21_p53_BLA_p4_ratio: Tox21 HCT-116 p53 Agonism Beta-lactamase Assay, Ratio, Phase 4 (AID 2283601)
Sequence (P04637 whole entry, looked up): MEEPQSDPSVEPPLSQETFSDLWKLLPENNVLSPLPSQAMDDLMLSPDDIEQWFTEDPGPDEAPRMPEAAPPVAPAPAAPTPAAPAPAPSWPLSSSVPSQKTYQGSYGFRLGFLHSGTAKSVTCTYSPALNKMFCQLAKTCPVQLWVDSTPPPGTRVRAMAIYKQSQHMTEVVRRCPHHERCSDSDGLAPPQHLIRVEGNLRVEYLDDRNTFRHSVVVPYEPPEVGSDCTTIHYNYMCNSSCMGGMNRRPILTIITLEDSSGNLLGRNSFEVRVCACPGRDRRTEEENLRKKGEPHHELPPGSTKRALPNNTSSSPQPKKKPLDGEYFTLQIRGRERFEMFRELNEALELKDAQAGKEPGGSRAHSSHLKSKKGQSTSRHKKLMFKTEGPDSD
Records with an inconclusive call do not appear. Activity calls are given as the source filed them. How the source made its calls: active means hit-call score of the fitted dose curve at least 0.9, where 1 is the maximum; inconclusive means response in the unintended direction; inactive means score below 0.9.
readout.type: AC50

{"compound": "CCCCCCCCCCCC[N+](C)(C)CCCCCCCCCCCC", "value": "32.3 µM (active)"}
{"compound": "CCOC(=O)CN[C@@H](C(=O)N1CC[C@H]1C(=O)NCc1ccc(/C(N)=N/O)cc1)C1CCCCC1", "value": "inactive"}
{"compound": "CNNCc1ccc(C(=O)NC(C)C)cc1", "value": "inactive"}
{"compound": "O=c1cc(-c2ccccc2)oc2ccc3ccccc3c12", "value": "inactive"}
{"compound": "CC=O", "value": "62.6 µM (active)"}
{"compound": "CCCCCCCCCCCCCCCCCC[N+](C)(C)Cc1ccccc1", "value": "69.6 µM (active)"}
{"compound": "CC1=NN(c2ccccc2)C(=O)C1", "value": "inactive"}
{"compound": "CC(O)COc1ccccc1 (stereo not given)", "value": "inactive"}
{"compound": "O=C(O)C(=O)O", "value": "inactive"}
{"compound": "OCC1CCC(CO)CC1 (stereo not given)", "value": "inactive"}

[Q] State the recorded AC50 for this entry: CCOC(C)=O
[A] inactive

[Q] State the recorded AC50 for this entry: COC(=O)CC(C(C)=O)C(=O)OC (stereo not given)
[A] inactive

[Q] State the recorded AC50 for this entry: CCC(=O)C=Cc1ccc(OC)cc1
[A] inactive

[Q] State the recorded AC50 for this entry: CCCCCCCCCC=CCC1CC(=O)OC1=O (stereo not given)
[A] inactive

[Q] State the recorded AC50 for this entry: CCC1CO1 (stereo not given)
[A] inactive

----------
read-out: serum amyloid A (SAA), SAA1 (gene 6288); assay: BSK_CASM3C_SAA: BioMAP Diversity Plus: CASM3C Assay for serum amyloid A (SAA) Biomarker Activity (AID 2283049); conditions: primary human coronary artery smooth muscle cells; actives raise or lower the signal;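 further: SAA protein level quantified by ELISA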
Activity calls are given as the source filed them. How the source made its calls: active means hit-call score of the fitted dose curve at least 0.9, where 1 is the maximum; inactive means score below 0.9.
readout.type: AC50

Some compounds with known AC50 results, for comparison:
{"compound": "O=C(O)CCC(F)(F)C(F)(F)C(F)(F)C(F)(F)C(F)(F)F", "value": "inactive"}
{"compound": "CCCCCCCCCCCCCCCCCC[N+](C)(C)Cc1ccccc1", "value": "2.72 µM (active)"}
{"compound": "O=C(CCCN1CCC(O)(c2ccc(Cl)cc2)CC1)c1ccc(F)cc1", "value": "inactive"}
{"compound": "COc1cc(OC)nc(NC(=O)NS(=O)(=O)Nc2ccccc2C(=O)N(C)C)n1", "value": "inactive"}
{"compound": "CCCCc1oc2ccccc2c1C(=O)c1cc(I)c(OCCN(CC)CC)c(I)c1", "value": "12.4 µM (active)"}

[Q] State the recorded AC50 for this entry: O=C1c2ccc(O)c(O)c2C(=O)c2c(O)ccc(O)c21
[A] inactive

[Q] State the recorded AC50 for this entry: OCC(CO)(CBr)CBr
[A] inactive

[Q] State the recorded AC50 for this entry: Cc1ccc(C(=O)c2ccccc2)cc1
[A] inactive
